conditions: 333.15 K; 101.33 kPa; Liquid; Concentric cylinders viscometry
Numbers after ± are expanded uncertainties.
Observable: viscosity

>>> df
                                   molecule          obs_value
0  CCCCC(CC)CCC(=O)[O-].CCCCCCCC[N+](C)(CCCCCCCC)CCCCCCCC [methyltrioctylammonium 4-ethyloctanoate]   324.9 ± 42 mPa·s
1  CCCCCCCC/C=C\CCCCCCCC(=O)[O-].CCCCCCCC[N+](C)(CCCCCCCC)CCCCCCCC [methyltrioctylammonium oleate]   227.9 ± 15 mPa·s
2  CCCCCCCC/C=C\CCCCCCCC(=O)[O-].CCCCCC[N+](CCCCCC)(CCCCCC)CCCCCC [tetrahexylammonium oleate]   165.4 ± 10 mPa·s
3  CCCCCCCC/C=C\CCCCCCCC(=O)[O-].CCCCCCCC[N+](CCCCCCCC)(CCCCCCCC)CCCCCCCC [tetraoctylammonium oleate]  146.2 ± 9.5 mPa·s

* * *

conditions: Glass; DSC
Observable: Glass transition temperature (°C)

>>> df
                                   molecule                    observable  units_of_measure  obs_value
0  CCCCCCCC/C=C\CCCCCCCC(=O)[O-].CCCCCCCC[N+](C)(CCCCCCCC)CCCCCCCC [methyltrioctylammonium oleate]  Glass transition temperature                °C      -56.3
1  CCCCCCCC/C=C\CCCCCCCC(=O)[O-].CCCCCC[N+](CCCCCC)(CCCCCC)CCCCCC [tetrahexylammonium oleate]  Glass transition temperature                °C      -83.2
2  CCCCCCCC/C=C\CCCCCCCC(=O)[O-].CCCCCCCC[N+](CCCCCCCC)(CCCCCCCC)CCCCCCCC [tetraoctylammonium oleate]  Glass transition temperature                °C      -79.8
3  CCCCC(CC)CCC(=O)[O-].CCCCCCCC[N+](C)(CCCCCCCC)CCCCCCCC [methyltrioctylammonium 4-ethyloctanoate]  Glass transition temperature                °C      -76.6

* * *

details: 303.15 K; 101.33 kPa; Liquid; Concentric cylinders viscometry
± gives the expanded uncertainty stated by the source.
The entries below are paired with their reported viscosity.
Observable: viscosity

>>> print(df.to_string())
                                   compound  observable           obs_value
0  CCCCC(CC)CCC(=O)[O-].CCCCCCCC[N+](C)(CCCCCCCC)CCCCCCCC [methyltrioctylammonium 4-ethyloctanoate]   viscosity  2468.1 ± 330 mPa·s
1  CCCCCCCC/C=C\CCCCCCCC(=O)[O-].CCCCCCCC[N+](CCCCCCCC)(CCCCCCCC)CCCCCCCC [tetraoctylammonium oleate]   viscosity    804.8 ± 58 mPa·s
2  CCCCCCCC/C=C\CCCCCCCC(=O)[O-].CCCCCCCC[N+](C)(CCCCCCCC)CCCCCCCC [methyltrioctylammonium oleate]   viscosity  1354.6 ± 100 mPa·s
3  CCCCCCCC/C=C\CCCCCCCC(=O)[O-].CCCCCC[N+](CCCCCC)(CCCCCC)CCCCCC [tetrahexylammonium oleate]   viscosity   1086.6 ± 79 mPa·s
